# measuredOn: PARP1 Y569A (UniProt P09874 1-1014, Y569A)
# Sequence (P09874 whole entry Y569A): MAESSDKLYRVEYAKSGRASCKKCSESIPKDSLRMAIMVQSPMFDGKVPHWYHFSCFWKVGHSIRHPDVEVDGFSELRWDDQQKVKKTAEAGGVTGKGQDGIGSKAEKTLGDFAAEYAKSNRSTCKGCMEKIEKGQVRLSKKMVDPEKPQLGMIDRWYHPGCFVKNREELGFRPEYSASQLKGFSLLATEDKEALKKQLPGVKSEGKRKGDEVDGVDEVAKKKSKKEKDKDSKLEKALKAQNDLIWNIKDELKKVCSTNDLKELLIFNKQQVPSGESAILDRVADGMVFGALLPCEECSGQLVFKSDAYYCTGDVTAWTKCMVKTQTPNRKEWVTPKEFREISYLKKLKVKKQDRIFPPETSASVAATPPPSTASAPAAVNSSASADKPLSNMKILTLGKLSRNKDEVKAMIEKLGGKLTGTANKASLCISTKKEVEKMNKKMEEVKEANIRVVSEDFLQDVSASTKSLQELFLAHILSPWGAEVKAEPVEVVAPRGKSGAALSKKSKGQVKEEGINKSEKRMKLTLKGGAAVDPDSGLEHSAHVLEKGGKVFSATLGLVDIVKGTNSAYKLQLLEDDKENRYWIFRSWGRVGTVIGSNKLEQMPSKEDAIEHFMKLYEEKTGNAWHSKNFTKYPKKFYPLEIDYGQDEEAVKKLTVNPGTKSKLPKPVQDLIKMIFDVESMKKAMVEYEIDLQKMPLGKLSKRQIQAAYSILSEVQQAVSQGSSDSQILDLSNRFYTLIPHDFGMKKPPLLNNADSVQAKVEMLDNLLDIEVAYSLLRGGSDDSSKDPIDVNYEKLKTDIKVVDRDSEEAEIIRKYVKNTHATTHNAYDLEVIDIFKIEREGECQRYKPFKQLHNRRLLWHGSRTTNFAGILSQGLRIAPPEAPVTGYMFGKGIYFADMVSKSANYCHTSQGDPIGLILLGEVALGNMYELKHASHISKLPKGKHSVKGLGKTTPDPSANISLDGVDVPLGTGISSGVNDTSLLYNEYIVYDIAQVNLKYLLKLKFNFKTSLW
# testDetails: fluorescence polarization
measurementType: Kd

>>> observedvalue("18-bp DSB duplex (dsDNA) DNA 1: GGGTTGCGGCCGCTTGGG DNA 2: CCCAAGCGGCCGCAACCC")
"20.6 nM"
